# TEST_SYSTEM: lipoxygenase from soybean (LOX)
# Construct: gene LOX1.1; such preparations are usually mainly lipoxygenase-1
# METHOD_SUMMARY: lipoxygenase inhibition assay, 96-well plate reader
# Assay type: biochemical, Glycine max
# MEASUREMENT_CONTEXT: substrate linoleic acid; positive control; μg of standard per mL of the enzyme solution
PARAMETER_MEASURED: LOX / IC50 (μg/mL)^a (µg/mL)
Your answer should be a plain number; it is taken to be in µg/mL.

See these solved cases before continuing.
O=C(/C=C/c1ccc(O)c(O)c1)O[C@@H]1C[C@](O)(C(=O)O)C[C@@H](O)[C@H]1O [CHA, 5-O-Caffeoylquinic acid] :: 166.83
COc1ccc2c(c1)c(CC(=O)O)c(C)n2C(=O)c1ccc(Cl)cc1 [IND, indomethacin] :: 92.60
C[C@@H]1O[C@@H](OC[C@H]2O[C@@H](Oc3c(-c4ccc(O)c(O)c4)oc4cc(O)cc(O)c4c3=O)[C@H](O)[C@@H](O)[C@@H]2O)[C@H](O)[C@H](O)[C@H]1O [RT] :: 162.70

Prompt: Entry O=c1c(O)c(-c2ccc(O)c(O)c2)oc2cc(O)cc(O)c12 [QU, quercetin] has what LOX / IC50 (μg/mL)^a?
Response: 89.23
